- measurement.target: Topoisomerase IV (Staphylococcus aureus) (UniProt P0C1U9+P0C1S7)
- experiment: Inhibition of Staphylococcus aureus DNA topoisomerase IV assessed as accumulation of double strand breaks incubated at 37 degreeC for 30 mins followed by incubation at 45 degreeC for 30 mins by ethidium bromide based agarose gel electrophoresis
- Format: protein-complex assay
- recorded.conditions: time 60.0 min
metric: inhibition

>>> print(df.to_string())
                                   compound      metric  recorded_value
0  COc1ccc2ncc(F)c(CCN3CCC(C(N)Cc4ccc(C)cc4)CC3)c2n1 (centres undefined)  inhibition            < 1%
1  COc1ccc2ncc(F)c(CCN3CCC(NCc4ccc(C)cc4)CC3)c2n1  inhibition            < 1%
2  COc1ccc2ncc(F)c(CCN3CCC(C(O)Cc4ccc(C)cc4)CC3)c2n1 (centres undefined)  inhibition            < 1%

Value of inhibition reported for the compound `COc1ccc2ncc(F)c(CCN3CCC([C@H](O)[C@H](O)c4ccc(C)cc4)CC3)c2n1` is < 1%

====

Each entry below carries its reported MIC.
- Tested on: Staphylococcus aureus
- experiment: Antibacterial activity against Staphylococcus aureus D83N
- Type: functional

Known MIC results, listed for orientation:
                                   compound     measurement_target  recorded_value
0  COc1ccc2ncc(F)c(CCN3CCC(/C=C\c4ccc5c(c4)OCCO5)CC3)c2n1  Staphylococcus aureus      ≥ 16 µg/mL
1  COc1ccc2ncc(F)c(CCN3CCC([C@@H](O)[C@H](O)c4ccc5c(c4)NC(=O)CO5)CC3)c2n1  Staphylococcus aureus      ≥ 32 µg/mL
2  COc1ccc2ncc(F)c(CCN3CCC(/C=C\c4ccc5c(c4)NC(=O)CO5)CC3)c2n1  Staphylococcus aureus      ≥ 64 µg/mL

For COc1ccc2ncc(F)c(CCN3CCC(C(N)Cc4ccc5c(c4)OCCO5)CC3)c2n1 (stereo not given) the compound record lists MIC as ≥ 16 µg/mL

Input `COc1ccc2ncc(F)c(CCN3CCC(/C=C/c4ccc(C)cc4)CC3)c2n1` . Output MIC: ≥ 32 µg/mL

====

- Tested on: Salmonella typhimurium
- experiment: Antibacterial activity against Salmonella typhimurium ATCC 14028
- Format: functional, Salmonella enterica subsp. enterica serovar Typhimurium
- recorded.conditions: Salmonella enterica
Items are presented alongside their recorded MIC.

In [3]: df
Out[3]:
                               smiles_entry      measurement_target  recorded_value
0  COc1ccc2ncc(F)c(CCN3CCC(CCc4ccc(C)cc4)CC3)c2n1  Salmonella typhimurium      ≥ 64 µg/mL
1  COc1ccc2ncc(F)c(CCN3CCC(/C=C/c4ccc(C)cc4)CC3)c2n1  Salmonella typhimurium      ≥ 64 µg/mL

// next entry
# molecule `COc1ccc2ncc(F)c(CCN3CCC(/C=C\c4ccc5c(c4)OCCO5)CC3)c2n1` ; its MIC = ≥ 64 µg/mL

Data provenance: ChEMBL document CHEMBL5579862
